Data origin: patent US6960614B2

tested on: carrageenan thermal hyperalgesia response; assay: Thermal hyperalgesia from intraplantar carrageenan in rats (Paw Withdrawal Latency); format: in vivo; conditions: rat, DOSE (PO) 10, 1 hour after drug administration
Metric: % Inhibition (1 hr) (%)
Numbers only; they are read as %.

Known % Inhibition (1 hr) results, listed for orientation:
O=C(NOCC(O)CO)c1cc(Cl)c(F)c(F)c1Nc1ccc(I)cc1F (stereo not shown)
26.7
O=C(NOCC(O)CO)c1cc(Cl)c(F)c(F)c1Nc1ccc(I)cc1Cl (stereo not shown)
39.6
O=C(NOC[C@H](O)CO)c1ccc(F)c(F)c1Nc1ccc(Br)cc1F
36.8

Please find the next molecule below.
## Task Give the measured % Inhibition (1 hr) for O=C(NOC[C@@H](O)CO)c1cc(Cl)c(F)c(F)c1Nc1ccc(I)cc1F
## Result 49

----------
System: MEK
Test: Cellular Assay for Measuring MEK Inhibition (inhibition of ERK phosphorylation in C26 cells, Western blot)
Assay type: cell-based, murine
Settings: 1 μM; ERK phosphorylation in C26 cells
Description: The evaluation of the compounds as MEK inhibitors was performed in an assay that measures their ability to inhibit phosphorylation of MAP kinase […]) in murine colon 26 (C26) carcinoma cells. Since ERK1 and ERK2 represent the only known substrates for MEK, measurement of inhibition of ERK phosphorylation in cells provides direct readout of cellular MEK inhibition by the compounds of the invention. […]
Metric: % Inhibition @ 1 μM (%)
Numbers only; they are read as %.

Known % Inhibition @ 1 μM results, listed for orientation:
CC(O)CONC(=O)c1ccc(F)c(F)c1Nc1ccc(Cl)cc1F (centres unmarked)
89.5
Cc1cc(I)ccc1Nc1c(C(=O)NOCC(C)O)cc(F)c(F)c1F (centres unmarked)
91.5
Cc1cc(I)ccc1Nc1c(C(=O)NOCCC(O)CO)cc(F)c(F)c1F (centres unmarked)
87.1
CC(C)(O)CONC(=O)c1ccc(F)c(F)c1Nc1ccc(I)cc1F
95.7

Please find the next compound below.
## Task Give the measured % Inhibition @ 1 μM for CCC(O)CONC(=O)c1cc(F)c(F)c(F)c1Nc1ccc(I)cc1Cl (centres unmarked)
## Result 71.3

----------
system: MEK; assay: Cellular Assay for Measuring MEK Inhibition (inhibition of ERK phosphorylation in C26 cells, Western blot); type: cell-based, murine; conditions: 1 μM; ERK phosphorylation in C26 cells
Property: % Inhibition @ 1 μM; scope: individual compounds
Numbers only; they are read as %.

COCCONC(=O)c1cc(Cl)c(F)c(F)c1Nc1ccc(I)cc1F [Example 142]
91.4
COCC(O)CONC(=O)c1ccc(F)c(F)c1Nc1ccc(F)cc1F (stereo not drawn) [Example 226]
41.5
O=C(NOCC(O)C(F)(F)F)c1cc(Cl)c(F)c(F)c1Nc1ccc(F)cc1F (stereo not drawn) [Example 211]
35
O=C(NOCC1(CO)CC1)c1cc(Cl)c(F)c(F)c1Nc1ccc(F)cc1F [Example 225]
8.7
CC(CO)ONC(=O)c1ccc(F)c(F)c1Nc1ccc(Cl)cc1F (stereo not drawn) [Example 125]
89

## Task Give the measured % Inhibition @ 1 μM for O=C(NOCC1CC1CO)c1ccc(F)c(F)c1Nc1ccc(F)cc1F (stereo not drawn) [Example 215]
## Result 11.7

## Task Give the measured % Inhibition @ 1 μM for CC(CO)ONC(=O)c1cc(Br)c(F)c(F)c1Nc1ccc(I)cc1F (stereo not drawn) [Example 129]
## Result 100

## Task Give the measured % Inhibition @ 1 μM for CC(O)CONC(=O)c1cc(Cl)c(F)c(F)c1Nc1ccc(F)cc1F (stereo not drawn) [Example 166]
## Result 31.9

## Task Give the measured % Inhibition @ 1 μM for COCC(O)CONC(=O)c1ccc(F)c(F)c1Nc1ccc(Br)cc1F (stereo not drawn) [Example 228]
## Result 92.4

## Task Give the measured % Inhibition @ 1 μM for COCCONC(=O)c1cc(F)c(F)c(F)c1Nc1ccc(I)cc1C [Example 138]
## Result 19.6

## Task Give the measured % Inhibition @ 1 μM for COCCONC(=O)c1cc(F)c(F)c(F)c1Nc1ccc(I)cc1Cl [Example 135]
## Result 41.4

## Task Give the measured % Inhibition @ 1 μM for O=C(NOCC(O)CN1CCOCC1)c1cc(F)c(F)cc1Nc1ccc(I)cc1F (stereo not drawn) [Example 153]
## Result 89.5
